Molecular target: Cellular tumor antigen p53 (Homo sapiens)
Assay: TOX21_p53_BLA_p2_ratio: Tox21 HCT-116 p53 Agonism Beta-lactamase Assay, Ratio, Phase 2 (AID 2283592)
Inconclusive results are not listed. Active and inactive are the calls of the source. The calls were made as follows: active = hit-call score of the fitted dose curve at least 0.9, where 1 is the maximum; inconclusive = response in the unintended direction; inactive = score below 0.9.
Field 'call' accepts Yes for active, No for inactive

molecule	system.under.test	label.class
O=C(Cl)c1ccccc1	Cellular tumor antigen p53 (Homo sapiens)	No

Could you check what this test reported for C[C@@H]1CC[C@@]2(OC1)O[C@H]1[C@@H](O)[C@H]3[C@@H]4CC[C@H]5C[C@@H](O[C@@H]6O[C@H](CO)[C@H](O[C@@H]7O[C@H](CO)[C@@H](O)[C@H](O[C@@H]8OC[C@@H](O)[C@H](O)[C@H]8O)[C@H]7O[C@@H]7O[C@H](CO)[C@@H](O)[C@H](O[C@@H]8O[C@H](CO)[C@@H](O)[C@H](O)[C@H]8O)[C@H]7O)[C@H](O)[C@H]6O)[C@H](O)C[C@]5(C)[C@H]4CC[C@]3(C)[C@H]1[C@@H]2C ?
Yes

Next record, please: CC(C)Br
No

====

Read-out: Collagen III, COL3A1 (gene 1281)
Experiment: BSK_hDFCGF_CollagenIII: BioMAP Diversity Plus: hDFCGF Assay for Collagen III Biomarker Activity (AID 2283056)
Conditions: primary human foreskin fibroblasts; actives raise or lower the signal
Activity calls are given as the source filed them. The calls were made as follows: active = hit-call score of the fitted dose curve at least 0.9, where 1 is the maximum; inactive = score below 0.9.
Field 'call' accepts label 1 = active, label 0 = inactive

The following compounds have reported results that may help.
compound	label.class
Cc1ccc(OP(=O)(Oc2ccc(C)cc2)Oc2ccc(C)cc2)cc1 (tested in a mixture with another compound)	label 1
CCCC[N+](CCCC)(CCCC)CCCC	label 0
c1ccc(Nc2ccc3ccccc3c2)cc1	label 1
O=[N+]([O-])c1ccc(Cl)cc1	label 0
CC(C)(c1cc(Cl)c(O)c(Cl)c1)c1cc(Cl)c(O)c(Cl)c1	label 1

Could you check what this test reported for Clc1ccc(-c2ccccc2)cc1 ?
label 0

Next record, please: O=C1C=CC(=O)C=C1
label 1

Next record, please: CC(C)(C)C(=O)CCl
label 0

====

Assay: TOX21_p53_BLA_p3_viability: Viability Assessment in the Tox21 HCT-116 p53 Agonism Beta-lactamase Assay, Phase 3 (AID 2283593);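 also: cells exposed to compound for 16 h before reading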
Results filed as inconclusive are left out. Active and inactive are the calls of the source. How the source made its calls: active means hit-call score of the fitted dose curve at least 0.9, where 1 is the maximum; inconclusive means response in the unintended direction; inactive means score below 0.9.
Field 'call' accepts y (active), n (inactive)

molecule	label.class
CC(=O)O[C@H]1C[C@H](O[C@H]2[C@@H](O)C[C@H](O[C@H]3[C@@H](O)C[C@H](OC4CC[C@@]5(C)C(CC[C@@H]6[C@@H]5CC[C@]5(C)[C@@H](C7=CC(=O)OC7)[C@@H](O)C[C@]65O)C4)O[C@@H]3C)O[C@@H]2C)O[C@H](C)[C@H]1O[C@@H]1O[C@H](CO)[C@@H](O)[C@H](O)[C@H]1O (some centres undefined)	y

Could you check what this test reported for CC1(C)[C@H](C=C(Cl)Cl)[C@@H]1C(=O)O[C@@H](C#N)c1cccc(Oc2ccccc2)c1 ?
n

Next record, please: Oc1ccc(C2(c3ccc(O)cc3)c3ccccc3-c3ccccc32)cc1
y

Next record, please: CCCCN=C=O
n

====

Experiment: CCTE_Mundy_HCI_hNP1_Casp3_7: CCTE's Caspase-Glo 3/7 Assay in human neuroprogenitor cells for Apoptosis, Mundy Lab (AID 2284240)
Activity calls are given as the source filed them. The calls were made as follows: active = hit-call score of the fitted dose curve at least 0.9, where 1 is the maximum; inactive = score below 0.9.
Field 'call' accepts 1 = active, -1 = inactive

The following compounds have reported results that may help.
compound	label.class
Brc1ccc(Oc2ccc(Br)cc2Br)c(Br)c1	-1
CN[C@]1(c2ccccc2Cl)CCCCC1=O	-1
CNC(=N[N+](=O)[O-])NCC1CCOC1 (configuration not stated)	-1
CCOP(=O)(OCC)SCSC(C)(C)C	-1
O=C(O)CNCP(=O)(O)O	-1

Could you check what this test reported for [CH3][Hg][Cl] ?
1

Next record, please: CCOP(=O)(Oc1cnc(C(C)(C)C)nc1)OC(C)C (configuration not stated)
-1
